Reported pKd values for the following binders.
- measured-on: T1, ADI-76361
- T1 construct: anti-CD3 antibody made in CHO cells, captured by anti-human Fc
- experiment: SPR Carterra avidity, yeast anti-ID
Notebook: values listed as pKd are -log10 of the concentration (mol/L).

Field: example entries. Status: answers known.
- binder: "ADI-34138 (antibody, V domains shown, anti-ID IgG) VH: QVQLVQSGAEVKKPGSSVKVSCKASGGTFSSYAISWVRQAPGQGLEWMGGIIPIFGTANYAQKFQGRVTITADESTSTAYMELSSLRSEDTAVYYCARGAPNYYGSGGYDDGWFDPWGQGTLVTVSS VL: EIVMTQSPGTLSLSPGERATLSCRASQSVSSSYLAWYQQKPGQAPRLLIYGASNRATGIPDRFSGSGSGTDFTLTISRLEPEDFAVYYCQQAHTALWTFGGGTKVEIK"
  pKd: 7.68
- binder: "ADI-30242 (antibody, V domains shown, anti-ID IgG) VH: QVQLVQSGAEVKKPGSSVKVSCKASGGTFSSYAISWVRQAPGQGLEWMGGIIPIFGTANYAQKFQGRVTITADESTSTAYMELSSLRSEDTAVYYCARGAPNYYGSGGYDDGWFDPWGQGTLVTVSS VL: EIVLTQSPGTLSLSPGERATLSCRASQSVSSSYLAWYQQKPGQAPRLLIYGASSRATGIPDRFSGSGSGTDFTLTISRLEPEDFAVYYCQQFGRDPTFGGGTKVEIK"
  pKd: 7.82
- binder: "ADI-34134 IgG (antibody, V domains shown) VH: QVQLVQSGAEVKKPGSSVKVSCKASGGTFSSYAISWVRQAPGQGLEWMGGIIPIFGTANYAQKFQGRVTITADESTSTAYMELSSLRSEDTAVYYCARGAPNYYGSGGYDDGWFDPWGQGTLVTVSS VL: EIVLTQSPGTLSLSPGERATLSCRASQSVSSDYLAWYQQKPGQAPRLLIYGASSRATGIPDRFSGSGSGTDFTLTISRLEPEDFAVYYCQQFGRVPTFGGGTKVEIK"
  pKd: 8.15
- binder: "ADI-34132 (antibody, V domains shown, anti-ID IgG) VH: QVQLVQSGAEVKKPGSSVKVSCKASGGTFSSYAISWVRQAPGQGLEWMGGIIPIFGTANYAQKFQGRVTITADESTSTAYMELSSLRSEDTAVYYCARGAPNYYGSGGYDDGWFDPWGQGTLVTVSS VL: DIQLTQSPSSLSASVGDRVTITCRASQSISSYLNWYQQKPGKAPKLLIYAASNLQSGVPSRFSGSGSGTDFTLTISSLQPEDFATYYCQQTLHTPITFGGGTKVEIK"
  pKd: 9.82

Exercise: So what's the measured pKd for this one? ADI-34137 (antibody, V domains shown, anti-ID IgG) VH: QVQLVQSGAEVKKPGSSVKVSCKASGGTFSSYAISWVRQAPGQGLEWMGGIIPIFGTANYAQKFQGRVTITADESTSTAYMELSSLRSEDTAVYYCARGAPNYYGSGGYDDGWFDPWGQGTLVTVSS VL: EIVLTQSPGTLSLSPGERATLSCRASQSVSSSYLAWYQQKPGQAPRLLIYGASSRATGIPDRFSGSGSGTDFTLTISRLEPEDFAVYYCQQFGRFPTFGGGTKVEIK
Solution: 10.27
